# Tested on: CCRIS mutagenicity, Ames/micronucleus/aberration tests
# measurementNotes: CCRIS mutagenicity studies
# assayContext: Test System: AMES SALMONELLA TYPHIMURIUM; Strain/Indicator: TA98; Metabolic Activation: NONE; Method: STANDARD PLATE
Active and inactive are the calls of the source. No rule for the calls is given here.
Outcome codes: True for active, False for inactive

{"compound": "O=[N+]([O-])c1cc(Cl)cc(Cl)c1O", "qualitativeLabel": "False"}
{"compound": "CC(C)(C)NCC(O)COc1ccccc1C1=CCCC1 (stereo not drawn)", "qualitativeLabel": "False"}
{"compound": "CN(Cc1cnc2nc(N)nc(N)c2n1)c1ccc(C(=O)N[C@@H](CCC(=O)O)C(=O)O)cc1", "qualitativeLabel": "False"}
{"compound": "c1cc2cccc3c4cccc5cccc(c(c1)c23)c54", "qualitativeLabel": "False"}
{"compound": "COc1ccc(S(=O)(=O)n2ncc(Cl)c(Cl)c2=O)cc1", "qualitativeLabel": "False"}
{"compound": "O=[N+]([O-])c1ccc2c3c(c4cccc5ccc1c2c54)CCCC3", "qualitativeLabel": "True"}
{"compound": "CNc1ccc(NCCO)c2c1C(=O)c1ccccc1C2=O", "qualitativeLabel": "False"}
{"compound": "O=[N+]([O-])c1cc2[nH]c3ccc4c(O)cccc4c3c2c2ccccc12", "qualitativeLabel": "True"}
{"compound": "CC(=O)Nc1ccc(Oc2ccc(NC(C)=O)cc2)cc1", "qualitativeLabel": "False"}
{"compound": "COC(=O)COc1ccc(Cl)cc1Cl", "qualitativeLabel": "False"}
{"compound": "O=[N+]([O-])c1cc2[nH]c3ccc4ccccc4c3c2c2ccc(O)cc12", "qualitativeLabel": "False"}
{"compound": "c1ccc2nc3ccccc3cc2c1", "qualitativeLabel": "False"}
{"compound": "CCCCCCCCC=O", "qualitativeLabel": "False"}

The reported measurements were obtained from PubChem BioAssay AID1259407.
